B1: TPR 5TU (parent)
chain: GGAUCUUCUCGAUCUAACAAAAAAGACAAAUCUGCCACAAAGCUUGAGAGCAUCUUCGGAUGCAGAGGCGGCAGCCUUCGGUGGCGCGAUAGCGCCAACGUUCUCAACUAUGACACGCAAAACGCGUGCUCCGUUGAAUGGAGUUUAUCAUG

Variants of: B1
Test Details: polymerase ribozyme fitness, log enrichment relative to wild type (log ratio); higher = more active; in vitro selection for triplet polymerase activity
Fewer inactive variants are shown than the library holds.
Quantity: polymerase ribozyme fitness (log ratio)

>>> print(df.to_string())
                                      change                                 quantity  modifier_sign  assay_value
 0                                  A3U G84U  polymerase ribozyme fitness (log ratio)              =         -2.4
 1                           A52C A91U U148A  polymerase ribozyme fitness (log ratio)              ≤         -4.2
 2           U9A A22G G34A A106G C116U A120U  polymerase ribozyme fitness (log ratio)              ≤         -4.2
 3          C32U U61A G94C C105U A107U A110U  polymerase ribozyme fitness (log ratio)              ≤         -4.2
 4                           C38A G84A U148G  polymerase ribozyme fitness (log ratio)              ≤         -4.2
 5                       A28G G42C C43A U55A  polymerase ribozyme fitness (log ratio)              ≤         -4.2
 6                            A12C U15A U56A  polymerase ribozyme fitness (log ratio)              =       -0.709
 7                                C85G A147U  polymerase ribozyme fitness (log ratio)              =       -0.872
 8  C5G A17G C38A A47C A60C U82C C95G C123U G143A A147G  polymerase ribozyme fitness (log ratio)              ≤         -4.2
 9                       C27U G58A A60G G84U  polymerase ribozyme fitness (log ratio)              =        -1.42
10               C5A U7C C18G U55A G58A A89C  polymerase ribozyme fitness (log ratio)              =        -1.54
